Assay: Evaluation of stability in liver microsome
Details: mouse liver microsome 0.25 mg/mL, test compound 1 μM, 37° C., 30 minutes
Parameter: Remaining (%)

Compound	Result units	Remaining (%)
COCc1ccc(NC(=O)c2c(-c3ccc(CO)cc3)n(C3(C)CC3)c3ncnc(N)c23)cc1	%	72
COCc1ccc(NC(=O)c2c(OC[C@@H](C)OC)n(C3(C)CC3)c3ncnc(N)c23)cc1	%	71
COCc1ccc(NC(=O)c2c(C#Cc3cncn3C)n(C3(C)CC3)c3ncnc(N)c23)cc1	%	53
COCc1ccc(NC(=O)c2c(OCC(C)C)n(C3(C)CC3)c3ncnc(N)c23)cc1	%	51
COCc1ccc(NC(=O)c2c(C#CCC3(O)CCOCC3)n(C3(C)CC3)c3ncnc(N)c23)cc1	%	68
COCc1ccc(NC(=O)c2c(OCC3CCOC3)n(C3(C)CC3)c3ncnc(N)c23)cc1 (centres unmarked)	%	68

I = COCc1ccc(NC(=O)c2c(C#CCN3CCN(C)CC3)n(C3(C)CC3)c3ncnc(N)c23)cc1
II = COCc1ccc(NC(=O)c2c(OCC(C)(C)OC)n(C3(C)CC3)c3ncnc(N)c23)cc1
input: // compare measured Remaining (%) between I and II ; output the lower one // output: label of the selected item
output: II

The reported measurements were obtained from patent US10807986B2.
